assay: Selectivity ratio of IC50 for of inhibition of rat alpha-2,3-O-ST3GALI to IC50 for inhibition of human alpha-2,6-ST6GAL1
Can you tell me Ratio IC50 for the items I'm about to list?

The molecule identified as "C[C@H](CCC(=O)OCCOCCOCCOCCOCCN=[N+]=[N-])[C@H]1CC[C@H]2[C@@H]3CC[C@@H]4C[C@H](OC(=O)[C@H](CC(=O)O)NC(=O)c5ccc([N+](=O)[O-])cc5)CC[C@]4(C)[C@H]3CC[C@]12C" registered its Ratio IC50 at > 67

Ratio IC50 measured on "COc1ccc2c(CC(=O)N[C@@H](CC(=O)O)C(=O)O[C@@H]3CC[C@@]4(C)[C@H](CC[C@@H]5[C@@H]4CC[C@]4(C)[C@@H]([C@H](C)CCC(=O)OCCOCCOCCN=[N+]=[N-])CC[C@@H]54)C3)cc(=O)oc2c1" = > 109

Record "C[C@H](CCC(=O)O)[C@H]1CC[C@H]2[C@@H]3CC[C@@H]4C[C@H](OC(=O)[C@@H](N)CC(=O)O)CC[C@]4(C)[C@H]3CC[C@]12C" , field Ratio IC50: 3

Lab book: Ratio IC50 of "C[C@H](CCC(=O)OCCOCCOCCN=[N+]=[N-])[C@H]1CC[C@H]2[C@@H]3CC[C@@H]4C[C@H](OC(=O)[C@H](CC(=O)O)NC(=O)c5ccc([N+](=O)[O-])cc5)CC[C@]4(C)[C@H]3CC[C@]12C" noted as > 94

Noted for "C[C@H](CCC(=O)OCCOCCOCCOCCOCCN=[N+]=[N-])[C@H]1CC[C@H]2[C@@H]3CC[C@@H]4C[C@H](OC(=O)[C@H](CC(=O)O)Nc5ccc([N+](=O)[O-])c6nonc56)CC[C@]4(C)[C@H]3CC[C@]12C" : its Ratio IC50 reads > 99

Looking up "C[C@H](CCC(=O)O)[C@H]1CC[C@H]2[C@@H]3CC[C@@H]4C[C@H](OC(=O)[C@H](CCC(=O)O)Nc5ccc([N+](=O)[O-])c6nonc56)CC[C@]4(C)[C@H]3CC[C@]12C" , I see its Ratio IC50 listed as 9

Notebook: "C[C@H](CCC(=O)OCCOCCN=[N+]=[N-])[C@H]1CC[C@H]2[C@@H]3CC[C@@H]4C[C@H](OC(=O)[C@H](CC(=O)O)Nc5ccc([N+](=O)[O-])c6nonc56)CC[C@]4(C)[C@H]3CC[C@]12C" , Ratio IC50 read as > 116

Data point: "C[C@H](CCC(=O)OCCOCCOCCN=[N+]=[N-])[C@H]1CC[C@H]2[C@@H]3CC[C@@H]4C[C@H](OC(=O)[C@H](CC(=O)O)Nc5ccc([N+](=O)[O-])c6nonc56)CC[C@]4(C)[C@H]3CC[C@]12C" ; Ratio IC50 = > 139

// Ratio IC50 value for "COc1ccc2c(CC(=O)N[C@@H](CC(=O)O)C(=O)O[C@@H]3CC[C@@]4(C)[C@H](CC[C@@H]5[C@@H]4CC[C@]4(C)[C@@H]([C@H](C)CCC(=O)OCCN=[N+]=[N-])CC[C@@H]54)C3)cc(=O)oc2c1" : > 89

Recorded Ratio IC50 (molecule "C[C@H](CCC(=O)OCCOCCOCCOCCN=[N+]=[N-])[C@H]1CC[C@H]2[C@@H]3CC[C@@H]4C[C@H](OC(=O)[C@H](CC(=O)O)NC(=O)c5ccc([N+](=O)[O-])cc5)CC[C@]4(C)[C@H]3CC[C@]12C" ): > 88

// sample "C[C@H](CCC(=O)OCCOCCOCCOCCN=[N+]=[N-])[C@H]1CC[C@H]2[C@@H]3CC[C@@H]4C[C@H](OC(=O)[C@H](CC(=O)O)Nc5ccc([N+](=O)[O-])c6nonc56)CC[C@]4(C)[C@H]3CC[C@]12C" , its Ratio IC50 was > 102

For record "COc1ccc2c(CC(=O)N[C@@H](CC(=O)O)C(=O)O[C@@H]3CC[C@@]4(C)[C@H](CC[C@@H]5[C@@H]4CC[C@]4(C)[C@@H]([C@H](C)CCC(=O)OCCOCCN=[N+]=[N-])CC[C@@H]54)C3)cc(=O)oc2c1" the listed Ratio IC50 is > 97

The molecule listed as "C[C@H](CCC(=O)OCCN=[N+]=[N-])[C@H]1CC[C@H]2[C@@H]3CC[C@@H]4C[C@H](OC(=O)[C@H](CC(=O)O)Nc5ccc([N+](=O)[O-])c6nonc56)CC[C@]4(C)[C@H]3CC[C@]12C" has a reported Ratio IC50 of > 119
